- study_target: PD-L1 His protein / PD-1 Fc protein (Homo sapiens (Human))
- Sequence (Q9NZQ7 19-238): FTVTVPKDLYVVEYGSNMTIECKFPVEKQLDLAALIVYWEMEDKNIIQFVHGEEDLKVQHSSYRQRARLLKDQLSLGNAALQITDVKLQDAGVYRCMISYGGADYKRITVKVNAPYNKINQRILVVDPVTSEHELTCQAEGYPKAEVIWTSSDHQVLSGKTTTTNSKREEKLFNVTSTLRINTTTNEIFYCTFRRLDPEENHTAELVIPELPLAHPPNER
- measurement_notes: HTRF Assay (PD-1/PD-L1 interaction)
- Assay type: binding
- test_parameters: PD-L1 His 6 nM, PD-1 Fc 6 nM
pIC50: −log10 of the molar value.
measured_quantity: pIC50

{"compound_structure_string": "COc1cc(-c2nccc(-c3cccc(-c4ccc5c(CN(C)C6CCN(C(C)=O)CC6)cn(C)c5n4)c3Cl)c2Cl)ccc1CNC1CCOCC1", "measured_quantity": "pIC50", "assay_result": 9.60}
{"compound_structure_string": "COc1cc(-c2nccc(-c3cccc(-c4ccc(CNC[C@@H]5CCC(=O)N5)c(OC)n4)c3Cl)c2Cl)cnc1CN[C@H]1CCOC1=O", "measured_quantity": "pIC50", "assay_result": 8.84}
{"compound_structure_string": "COc1cc(-c2nccc(-c3cccc(-c4ccc(CNC[C@@H]5CCC(=O)N5)c(OC)n4)c3Cl)c2Cl)cc(C)c1CN(C)C[C@@H]1CCC(=O)N1", "measured_quantity": "pIC50", "assay_result": 8.89}

---

Below, each of the molecules is paired with its reported pEC50 value.
- study_target: human PD-L1 (Homo sapiens (Human), UniProt Q9NZQ7)
- Sequence (Q9NZQ7 19-290): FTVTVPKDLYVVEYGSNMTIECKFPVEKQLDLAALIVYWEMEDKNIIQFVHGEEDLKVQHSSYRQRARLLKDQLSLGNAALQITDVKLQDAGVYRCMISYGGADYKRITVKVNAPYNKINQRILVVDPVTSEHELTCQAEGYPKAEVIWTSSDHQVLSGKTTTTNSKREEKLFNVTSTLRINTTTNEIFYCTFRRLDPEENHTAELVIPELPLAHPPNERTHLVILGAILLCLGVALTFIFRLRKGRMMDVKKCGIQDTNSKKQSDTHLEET
- measurement_notes: T cell activation luciferase reporter cell culture system (T Cell Activation Assay)
- Assay type: cell-based
- test_parameters: luciferase reporter assay; PD-L1 aAPC/CHO-K1 cells with PD-1 effector Jurkat T cells
pEC50: −log10 of the molar value.

{"molecule": "COc1nc(-c2ccnc(-c3cccc4c3CC[C@@H]4Oc3nc(OC)c(CNC4CCOCC4)cc3C(F)(F)F)c2Cl)ccc1CN1CC2(CNC(=O)C2)C1 [Example 552]", "pEC50": 6.84}
{"molecule": "COc1nc(-c2ccnc(-c3cccc(NC(=O)c4ccc(CNCCO)cn4)c3C)c2Cl)ccc1CNC1CCN(C(C)=O)CC1 [Example 769]", "pEC50": 7.22}
{"molecule": "COc1cc(-c2nccc(-c3cccc(-c4ccc(CN5CC(C)(O)C5)c(OC)n4)c3Cl)c2Cl)ccc1CN1CC(C)(O)C1 [Example 396]", "pEC50": 7.82}
{"molecule": "COc1nc(-c2cccc(-c3ccnc(-c4cc(OC)c5nc(CN[C@H]6CC[C@H](O)CC6)cn5c4)c3Cl)c2Cl)ccc1CNC[C@@H]1CCC(=O)N1 [Example 384]", "pEC50": 7.16}
{"molecule": "COc1cc(-c2nccc(-c3cccc(-c4ccc(CN[C@H]5CC[C@H](O)CC5)c(OC)n4)c3Cl)c2Cl)ccc1CN1CC2(CNC(=O)C2)C1 [Example 515]", "pEC50": 7.75}
{"molecule": "COc1nc(-c2cccc(-c3ccnc(-c4ccc5c(c4)CNC5)c3Cl)c2Cl)ccc1CN1CC2(CNC(=O)C2)C1 [Compound 230]", "pEC50": 6.41}

---

- study_target: PD-L1 His protein / PD-1 Fc protein (Homo sapiens (Human))
- measurement_notes: HTRF Assay (PD-1/PD-L1 interaction)
- Format: binding
- test_parameters: PD-L1 His 6 nM, PD-1 Fc 6 nM

{"compound_structure_string": "COc1cc(-c2nccc(-c3cccc(-c4ccc(CNC5CCOCC5)c(OC)n4)c3C(F)(F)F)c2Cl)ccc1CNC1CCOCC1", "display_unit": "nM", "IC50": 110}
{"compound_structure_string": "COc1nc(-c2cccc(-c3ccnc(-c4ccc5c(c4)CN(CCNC[C@@H]4CCC(=O)N4)C5=O)c3Cl)c2Cl)ccc1CN1CC2(C1)CN(C(C)=O)C2", "display_unit": "nM", "IC50": 2.68}
{"compound_structure_string": "COc1cc(-c2nccc(-c3cccc(-c4ccc(CN5CC6(CNC(=O)C6)C5)c(OC)n4)c3Cl)c2Cl)ccc1CN1CC2(CNC(=O)C2)C1", "display_unit": "nM", "IC50": 0.5}
{"compound_structure_string": "COc1cc(-c2nccc(-c3cccc(-c4ccc(CNC[C@@H]5CCC(=O)N5)c(OC)n4)c3Cl)c2Cl)cc(C)c1CNC[C@H](C)O", "display_unit": "nM", "IC50": 0.9}
{"compound_structure_string": "COc1nc(-c2cccc(-c3ccnc(-c4ccc(CN5CC6(CNC(=O)C6)C5)c(OC(F)F)c4)c3Cl)c2Cl)ccc1CN1CC2(C1)CN(C(C)=O)C2", "display_unit": "nM", "IC50": 1.46}
{"compound_structure_string": "COc1nc(-c2cccc(-c3ccnc(-c4cc(OC)c5nc(CN[C@H]6CC[C@H](O)CC6)nn5c4)c3Cl)c2Cl)ccc1CNC1CCN(C(C)=O)CC1", "display_unit": "nM", "IC50": 0.38}
{"compound_structure_string": "COc1nc(-c2ccnc(-c3cccc(NC(=O)c4ccc(CNCCO)cn4)c3C)c2Cl)ccc1CNC[C@@H]1CCC(=O)N1", "display_unit": "nM", "IC50": 0.03}
{"compound_structure_string": "COc1cc(-c2nccc(-c3cccc(-c4ccc(CNC5CCN(C(C)=O)CC5)c(OC)n4)c3Cl)c2Cl)ccc1CN[C@H]1CCOC1=O", "display_unit": "nM", "IC50": 0.1}
{"compound_structure_string": "COc1cc(-c2nccc(-c3cccc(-c4ccc(CNC5CCOCC5)c(OC)n4)c3F)c2F)ccc1CNC1CCOCC1", "display_unit": "nM", "IC50": 22.6}
{"compound_structure_string": "COc1cc(-c2nccc(-c3cccc(-c4ccc(CN5CC6(CNC(=O)C6)C5)c(OC)n4)c3Cl)c2Cl)ccc1CN1CC2(C1)CN(C(C)=O)C2", "display_unit": "nM", "IC50": 0.76}
{"compound_structure_string": "COc1cc(-c2nccc(-c3cccc(-c4ccc(CNC5CCN(C(C)=O)CC5)c(OC)n4)c3Cl)c2Cl)ccc1CN[C@@H]1COC(=O)C1", "display_unit": "nM", "IC50": 0.17}
{"compound_structure_string": "COc1nc(-c2cccc(-c3ccnc(-c4ccc5c(CNCC(C)(C)O)cn(C)c5c4)c3Cl)c2Cl)ccc1CNC[C@@H]1CCC(=O)N1", "display_unit": "nM", "IC50": 3.4}
{"compound_structure_string": "COc1cc(-c2nccc(-c3cccc(-c4ccc(CNC5CCN(C(C)=O)CC5)c(OC)n4)c3Cl)c2Cl)ccc1CN1CCC(NC(C)=O)CC1", "display_unit": "nM", "IC50": 2.76}
{"compound_structure_string": "COc1cc(-c2nccc(-c3cccc(-c4ccc(CN(C)C[C@H]5CNC(=O)C5)c(OC)n4)c3Cl)c2Cl)ccc1CN(C)C[C@H]1CNC(=O)C1", "display_unit": "nM", "IC50": 16.9}
{"compound_structure_string": "COc1cc(-c2nccc(-c3cccc(-c4ccc5c(CNC6CN(C(C)=O)C6)cn(C)c5n4)c3Cl)c2Cl)ccc1CNC[C@@H]1CCC(=O)N1", "display_unit": "nM", "IC50": 0.6}
{"compound_structure_string": "COc1nc(-c2cccc(-c3ccnc(-c4ccc5c(c4)OCCNC5)c3Cl)c2Cl)ccc1CNC[C@@H]1CCC(=O)N1", "display_unit": "nM", "IC50": 0.2}
{"compound_structure_string": "COc1cc(-c2nccc(-c3cccc(-c4ccc(CNC5CCN(C(C)=O)CC5)c(OC)n4)c3F)c2Cl)ccc1CNC1CCN(C(C)=O)CC1", "display_unit": "nM", "IC50": 2.74}
{"compound_structure_string": "COc1nc(-c2ccnc(-c3cccc4c3CC[C@@H]4Nc3nc(OC)c(CN[C@H]4C[C@](C)(O)C4)cc3C(F)(F)F)c2Cl)ccc1CN[C@H]1C[C@](C)(O)C1", "display_unit": "nM", "IC50": 8.2}
{"compound_structure_string": "COc1nc(-c2ccnc(-c3cccc(NC(=O)c4cn(C)c(=O)n(C)c4=O)c3Cl)c2Cl)ccc1CN1CC2(C1)CN(C(C)=O)C2", "display_unit": "nM", "IC50": 0.9}
{"compound_structure_string": "COc1cc(-c2nccc(-c3cccc(-c4ccc(CNC5CCN(C(C)=O)CC5)c(OC)n4)c3Cl)c2Cl)ccc1CNCC(F)F", "display_unit": "nM", "IC50": 47.1}
{"compound_structure_string": "COc1cc(-c2nccc(-c3cccc(NC(=O)c4ccc(CNCCO)cn4)c3Cl)c2Cl)ccc1CN1CC2(C1)CN(C(C)=O)C2", "display_unit": "nM", "IC50": 0.47}
{"compound_structure_string": "COc1cc(-c2nccc(-c3cccc(-c4ccc(CN5CC6(CNC(=O)C6)C5)c(OC)n4)c3Cl)c2Cl)cc2c1CN(CCC(=O)O)CC2", "display_unit": "nM", "IC50": 0.24}
{"compound_structure_string": "COc1cc(-c2nccc(-c3cccc(-c4ccc(CN5CCC(O)CC5)c(OC)n4)c3Cl)c2Cl)ccc1CN1CC2(CCN(C(C)=O)C2)C1", "display_unit": "nM", "IC50": 0.71}
{"compound_structure_string": "COc1cc(-c2ncnc(-c3cccc(-c4ccc(CNC5CCN(C(C)=O)CC5)c(OC)n4)c3Cl)c2Cl)ccc1CNC1CCN(C(C)=O)CC1", "display_unit": "nM", "IC50": 0.5}
